These measurements were taken from paper PMC9482650.

# System Under Test: MAST1, Q9Y2H9
# Sequence (Q9Y2H9 962-1065): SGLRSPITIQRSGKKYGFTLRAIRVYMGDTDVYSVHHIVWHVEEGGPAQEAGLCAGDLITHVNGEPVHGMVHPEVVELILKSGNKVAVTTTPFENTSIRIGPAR
# Method Summary: holdup assay
# Design: key: below the threshold = too weak to quantify, mostly under pKd 3.1 to 4
# Condition Label: plain residues with an end cap or a label only (N-terminal biotin on a linker: ado-ado)
Assay Endpoint: pKd

| Binder | Assay Endpoint | Reading |
| --- | --- | --- |
| RHGSCVETSL [TMEM151B, Q8IW70] | pKd | 5.12 |
| CLREWCDAFL [BANF1, O75531] | pKd | 4.96 |
| VNKSKLLTDV [KCNA1, Q09470] | pKd | 4.3 |
| GSGAVEMESV [AQP6, Q13520] | pKd | 3.65 |
| VYPNAKVELV [PDLIM4_iso2, P50479;P50479-1] | pKd | below the threshold |
| LPHGHSTTRV [NLGN4X, Q8N0W4] | pKd | 4.7 |
| HLRARKSEWV [GJD4, Q96KN9] | pKd | below the threshold |
| QHKTQLQTLI [BPIFA2, Q96DR5] | pKd | below the threshold |
| VRNLPESEEL [MYOZ3, Q8TDC0] | pKd | 4.11 |
| DDEDRLVIEI [ZNF831, Q5JPB2] | pKd | below the threshold |
| TSSMRGMDAV [RSRC2, Q7L4I2] | pKd | below the threshold |
| TACCHSETVV [TGFA, P01135] | pKd | 3.9 |
| LGRSTPQSEV [DGKH, Q86XP1] | pKd | 4.19 |
| EVEEFPETSV [TRPV3, Q8NET8] | pKd | 4.21 |
| SARSRLSSNL [HCN2, Q9UL51] | pKd | 4.65 |
| PEYLGLDVPV [ERBB2, P04626] | pKd | 3.98 |
| DDENIRTSDV [PLEKHA2, Q9HB19] | pKd | 4.31 |
| SAAKVLTSMC [GHRHR, Q02643] | pKd | below the threshold |
| SGSLKLMTTV [DACT1, Q9NYF0] | pKd | 3.97 |
| LPAHHNATRL [SLC34A1, Q06495;Q06495-1] | pKd | 4.84 |
| TSQESEDTYL [TBC1D10A, Q9BXI6] | pKd | 4.71 |
| EALLQMESVA [CAVIN3, Q969G5] | pKd | 3.86 |
| AKPSRISTVV [IQSEC2, Q5JU85] | pKd | 4.28 |
| LKVPPEERLI [CRB2, Q5IJ48] | pKd | 3.58 |
| SAKVRTVTSV [RASL11B, Q9BPW5] | pKd | 4.77 |
| IPLDGETEEL [MYOZ1, Q9NP98] | pKd | 4.1 |
| EVNETDDTKM [KCNJ1, P48048] | pKd | 4.46 |
| VKPQVSESKL [ACOT8, O14734] | pKd | 4.77 |
| QGPVETESVV [SLC45A4, Q5BKX6] | pKd | 4.36 |
| QPCFNKLFPL [LPXN, O60711] | pKd | 4.33 |
| GNSVLKSTQF [SLC22A12, Q96S37] | pKd | 4.26 |
| YNNCLEILRV [DCAF7, P61962] | pKd | 4.08 |
